# target_of_assay: ATP-dependent translocase ABCB1 (Homo sapiens, UniProt P08183)
# Sequence (P08183 whole entry): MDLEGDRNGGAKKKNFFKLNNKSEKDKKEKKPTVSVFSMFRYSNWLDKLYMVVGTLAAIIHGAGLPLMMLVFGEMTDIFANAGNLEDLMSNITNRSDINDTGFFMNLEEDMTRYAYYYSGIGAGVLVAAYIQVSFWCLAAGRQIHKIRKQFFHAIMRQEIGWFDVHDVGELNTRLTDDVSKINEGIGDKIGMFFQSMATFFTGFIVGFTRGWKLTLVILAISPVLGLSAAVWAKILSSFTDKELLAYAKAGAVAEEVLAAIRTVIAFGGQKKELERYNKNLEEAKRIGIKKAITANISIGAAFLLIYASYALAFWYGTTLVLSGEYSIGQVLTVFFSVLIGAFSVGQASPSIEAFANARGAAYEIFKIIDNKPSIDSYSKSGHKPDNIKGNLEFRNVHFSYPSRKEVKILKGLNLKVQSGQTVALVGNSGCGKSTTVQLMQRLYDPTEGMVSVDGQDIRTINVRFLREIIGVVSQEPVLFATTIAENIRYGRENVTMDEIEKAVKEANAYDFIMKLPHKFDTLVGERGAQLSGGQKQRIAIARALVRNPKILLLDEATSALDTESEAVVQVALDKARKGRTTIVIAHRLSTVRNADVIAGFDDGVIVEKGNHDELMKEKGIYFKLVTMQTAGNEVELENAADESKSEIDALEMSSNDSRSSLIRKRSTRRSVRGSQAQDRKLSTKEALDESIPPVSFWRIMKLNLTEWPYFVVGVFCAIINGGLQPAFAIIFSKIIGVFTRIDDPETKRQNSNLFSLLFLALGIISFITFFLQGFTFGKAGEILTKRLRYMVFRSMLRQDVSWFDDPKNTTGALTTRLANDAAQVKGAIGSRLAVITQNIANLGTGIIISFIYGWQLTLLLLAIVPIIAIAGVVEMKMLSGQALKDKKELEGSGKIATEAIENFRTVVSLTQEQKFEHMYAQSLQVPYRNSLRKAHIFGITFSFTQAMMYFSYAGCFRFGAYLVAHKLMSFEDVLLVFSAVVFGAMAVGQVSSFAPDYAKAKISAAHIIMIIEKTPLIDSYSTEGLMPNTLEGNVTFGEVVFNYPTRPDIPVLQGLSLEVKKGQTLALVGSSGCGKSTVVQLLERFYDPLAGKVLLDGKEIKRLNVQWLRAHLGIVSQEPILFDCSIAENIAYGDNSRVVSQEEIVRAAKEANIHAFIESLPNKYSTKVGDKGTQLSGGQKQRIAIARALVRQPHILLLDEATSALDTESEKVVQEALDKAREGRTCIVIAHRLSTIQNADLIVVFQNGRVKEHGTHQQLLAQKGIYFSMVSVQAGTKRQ
# method_summary: Inhibition of P-gp-mediated daunorubicin efflux in human CCRF-CEM/VCR1000 cells measured within 1 hr by FACS flow cytometry
pIC50: −log10 of the molar value.
Please note: satisfied applies when pIC50 is 6 or greater, and not satisfied applies otherwise.

Example results:
[
  {
    "test_smiles": "COc1ccccc1/C=C/C=C/C(=O)c1cc(OC)c(O)c(OC)c1",
    "category": "not satisfied"
  },
  {
    "test_smiles": "COc1ccc2c(c1)C/C(=C\\C=C\\c1ccccc1OC)C2=O",
    "category": "not satisfied"
  }
]

Decide: is the reported value of pIC50 for COc1cc(C(=O)/C=C/c2cccc(/C=C/C(=O)c3cc(OC)c(OC)c(OC)c3)c2)cc(OC)c1OC equal to or greater than 6?
satisfied

Decide: is the reported value of pIC50 for COc1cc(/C=C/C(=O)c2cccc(C(=O)/C=C/c3cc(OC)c(OC)c(OC)c3)c2)cc(OC)c1OC equal to or greater than 6?
satisfied

Decide: is the reported value of pIC50 for COc1ccc(C(=O)/C=C/c2cccc(/C=C/C(=O)c3ccc(OC)c(OC)c3)c2)cc1OC equal to or greater than 6?
satisfied

Decide: is the reported value of pIC50 for COC(=O)C1=C(O)/C(=C/C=C/c2ccccc2OC)CCC1 equal to or greater than 6?
not satisfied

Decide: is the reported value of pIC50 for COc1cc(/C=C/C=C/C(=O)c2cccc(C(=O)/C=C/C=C/c3cc(OC)c(OC)c(OC)c3)c2)cc(OC)c1OC equal to or greater than 6?
satisfied

Decide: is the reported value of pIC50 for COc1ccccc1C(=O)/C=C/c1c(C)cc(C)cc1C equal to or greater than 6?
not satisfied

Decide: is the reported value of pIC50 for COc1cc(C(=O)/C=C/c2ccccc2SC)cc(OC)c1OC equal to or greater than 6?
satisfied

Decide: is the reported value of pIC50 for COc1cc2c(cc1OC)C(=O)/C(=C/C=C/c1cc(OC)c(OC)c(OC)c1)CC2 equal to or greater than 6?
satisfied

----------
# target_of_assay: ATP-dependent translocase ABCB1 (Homo sapiens, UniProt P08183)
# method_summary: Inhibition of P-gp-mediated daunorubicin efflux in human CCRF-CEM/VCR1000 cells measured within 1 hr by FACS flow cytometry
Group membership follows IC50 per the scheme label 0 (below 1 µM), label 1 (1 µM to below 3 µM), label 2 (3 µM or more)

Example results:
[
  {
    "test_smiles": "COc1cc2c(cc1OC)C(=O)/C(=C/c1ccc(N(C)C)cc1)C2",
    "category": "label 0"
  },
  {
    "test_smiles": "COc1ccc(C(=O)/C=C/c2ccc(OC)c3ccccc23)cc1OC",
    "category": "label 1"
  },
  {
    "test_smiles": "COc1cc(/C=C/C=C2\\Cc3ccc(OC)c(OC)c3C2=O)cc(OC)c1OC",
    "category": "label 1"
  },
  {
    "test_smiles": "COc1ccc2c(c1)C(=O)/C(=C/C=C/c1cc(OC)c(OC)c(OC)c1)C2",
    "category": "label 1"
  },
  {
    "test_smiles": "COc1ccc2c(c1)CC/C(=C\\c1ccc3ccccc3c1)C2=O",
    "category": "label 2"
  },
  {
    "test_smiles": "COc1cc2c(cc1OC)C(=O)/C(=C/C=C/c1ccc(N(C)C)cc1)C2",
    "category": "label 0"
  },
  {
    "test_smiles": "COc1cc(C(=O)/C=C/C=C/c2ccccc2SC)cc(OC)c1OC",
    "category": "label 0"
  },
  {
    "test_smiles": "COc1ccccc1/C=C/C=C/C(=O)c1cc(OC)c(OC)c(OC)c1",
    "category": "label 1"
  },
  {
    "test_smiles": "COc1cc(C(=O)/C=C/c2ccc(C(=O)O)cc2)cc(OC)c1OC",
    "category": "label 2"
  },
  {
    "test_smiles": "COc1cc(/C=C/C=C2\\Cc3ccc(OC)c(OC)c3C2=O)ccc1O",
    "category": "label 1"
  }
]

For the record COc1ccc2c(c1)CC/C(=C\C=C\c1cc(OC)c(OC)c(OC)c1)C2=O , report the class its IC50 corresponds to.
label 1
